Where these numbers come from: patent US20260242735A1

- assay system: human CD33 V267A (human, UniProt P20138 18-364)
- Sequence (P20138 18-364 V267A limits assumed): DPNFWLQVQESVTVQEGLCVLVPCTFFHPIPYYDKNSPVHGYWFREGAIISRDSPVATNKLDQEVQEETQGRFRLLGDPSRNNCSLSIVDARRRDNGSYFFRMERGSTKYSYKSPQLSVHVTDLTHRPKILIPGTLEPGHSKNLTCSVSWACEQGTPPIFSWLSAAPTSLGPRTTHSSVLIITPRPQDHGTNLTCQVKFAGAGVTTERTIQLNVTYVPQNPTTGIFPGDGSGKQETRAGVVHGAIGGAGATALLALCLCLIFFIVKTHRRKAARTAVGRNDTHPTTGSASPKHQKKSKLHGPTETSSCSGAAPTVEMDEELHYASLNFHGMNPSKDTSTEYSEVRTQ
- assay remarks: alanine scan, flow cytometry, HEK293-T;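 further: antibody binding to each alanine-substituted CD33 mutant expressed transiently in HEK293-T, read as fluorescence minus background, mean of duplicates, relative to wild-type CD33 set as 100%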
recorded metric: Mean % WT Binding (% WT binding)
Use % WT binding as the unit, but write only the number.

// query Requested read-out: Mean % WT Binding. Entry: Refmab #3 (antibody, V domains shown, The alanine scan used IgG or Fab) VH: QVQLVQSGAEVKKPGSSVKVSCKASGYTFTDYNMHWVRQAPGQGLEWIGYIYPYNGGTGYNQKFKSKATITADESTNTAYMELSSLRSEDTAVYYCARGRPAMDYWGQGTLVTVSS VL: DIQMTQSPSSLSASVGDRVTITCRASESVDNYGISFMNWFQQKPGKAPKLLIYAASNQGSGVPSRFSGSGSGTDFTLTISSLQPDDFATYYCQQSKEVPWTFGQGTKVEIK
// result 106
